Measured Ratio by item
# Species on record: Homo sapiens
# protocol.text: Relative binding affinity for GABA-A receptor alpha-5 over alpha1 subunits
Answer with a bare number; do not write a unit.

{"smiles.code": "CCc1ccc2c(c1)C(=O)N(C)Cc1c(C(=O)OC(C)(C)C)ncn1-2", "Ratio": 8.6}
{"smiles.code": "CN1Cc2c(C(=O)OC(C)(C)C)ncn2-c2ccc(Br)cc2C1=O", "Ratio": 24}
{"smiles.code": "CC#Cc1ccc2c(c1)C(=O)N(C)Cc1c(C(=O)OCC)ncn1-2", "Ratio": 6}
{"smiles.code": "C#Cc1ccc2c(c1)C(=O)N(C)Cc1c(C(=O)OC(C)(C)C)ncn1-2", "Ratio": 67.3}
{"smiles.code": "CCOC(=O)c1ncn2c1CN(C)C(=O)c1cc(CC)ccc1-2", "Ratio": 13.8}

// lookup Ratio for `CN1Cc2c(C(=O)OC(C)(C)C)ncn2-c2ccc(C#C[Si](C)(C)C)cc2C1=O` 75.5

Please give the result for `CCOC(=O)c1ncn2c1CN(C)C(=O)c1cc(C#C[Si](C)(C)C)ccc1-2` too. 24

Please give the result for `C#Cc1ccc2c(c1)C(=O)N(C)Cc1c(C(=O)OCC)ncn1-2` too. 60

----------
# experimental.target: Gamma-aminobutyric acid receptor subunit alpha-5 (Rattus norvegicus, UniProt P19969)
# Sequence (P19969 whole entry): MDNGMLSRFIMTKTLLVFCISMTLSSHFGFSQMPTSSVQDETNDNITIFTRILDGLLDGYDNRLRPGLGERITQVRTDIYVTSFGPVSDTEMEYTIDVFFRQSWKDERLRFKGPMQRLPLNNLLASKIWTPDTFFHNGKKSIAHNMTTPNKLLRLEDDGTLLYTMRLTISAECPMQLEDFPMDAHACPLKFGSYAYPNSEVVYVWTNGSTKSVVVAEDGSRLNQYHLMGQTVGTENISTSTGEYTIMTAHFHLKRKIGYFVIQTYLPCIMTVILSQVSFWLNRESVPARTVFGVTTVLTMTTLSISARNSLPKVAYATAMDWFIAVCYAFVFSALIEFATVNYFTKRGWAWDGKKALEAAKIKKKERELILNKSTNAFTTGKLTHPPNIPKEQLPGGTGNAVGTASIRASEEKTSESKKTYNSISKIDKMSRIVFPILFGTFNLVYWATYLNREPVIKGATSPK
# protocol.text: Inhibition of [3H]flunitrazepam binding to alpha5 GABA-A receptor of rat hippocampal membranes
# Assay type: cell membranes, Membrane
attribute.measured: pIC50
// pIC50: -log10(molar conc.)

// lookup pIC50 for `C#Cc1ccc2c(c1)C(=O)N(C)Cc1c(C(=O)OC(C)(C)C)ncn1-2` 7.17

----------
# experimental.target: GABA-A receptor; anion channel
# protocol.text: Inhibition of [3H]flunitrazepam binding to low affinity GABA-A receptor of rat hippocampal membranes
# Format: cell membranes, Membrane
attribute.measured: pIC50
// pIC50: -log10(molar conc.)

// lookup pIC50 for `C#Cc1ccc2c(c1)C(=O)N(C)Cc1c(C(=O)OC(C)(C)C)ncn1-2` 7.07

----------
# experimental.target: Gamma-aminobutyric acid receptor subunit alpha-5 (Rattus norvegicus)
# protocol.text: Inhibition of [3H]flunitrazepam binding to alpha-5 GABA-A receptor of rat hippocampal membranes
# Format: cell membranes, Membrane
attribute.measured: pIC50
// pIC50: -log10(molar conc.)

// lookup pIC50 for `C#Cc1ccc2c(c1)C(=O)N(C)Cc1c(C(=O)OC(C)(C)C)ncn1-2` 9.48

----------
# experimental.target: GABA A receptor alpha-2/beta-2/gamma-2 (Homo sapiens, UniProt P18507+P47869+P47870)
# Sequence (P47870 whole entry): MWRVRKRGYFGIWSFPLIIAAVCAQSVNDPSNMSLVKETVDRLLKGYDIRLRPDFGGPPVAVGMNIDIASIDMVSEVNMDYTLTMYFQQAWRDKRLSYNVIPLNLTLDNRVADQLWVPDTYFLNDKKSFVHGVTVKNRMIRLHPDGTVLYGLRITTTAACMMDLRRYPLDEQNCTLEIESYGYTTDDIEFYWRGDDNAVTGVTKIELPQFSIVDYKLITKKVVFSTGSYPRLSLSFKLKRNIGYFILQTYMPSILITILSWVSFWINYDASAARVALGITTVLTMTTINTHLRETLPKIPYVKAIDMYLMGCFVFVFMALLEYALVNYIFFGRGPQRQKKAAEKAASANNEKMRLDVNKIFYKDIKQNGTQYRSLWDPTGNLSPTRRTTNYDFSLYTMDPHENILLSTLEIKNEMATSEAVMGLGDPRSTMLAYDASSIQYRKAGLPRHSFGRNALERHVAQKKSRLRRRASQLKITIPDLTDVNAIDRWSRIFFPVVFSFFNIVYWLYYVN
# Sequence (P18507 whole entry): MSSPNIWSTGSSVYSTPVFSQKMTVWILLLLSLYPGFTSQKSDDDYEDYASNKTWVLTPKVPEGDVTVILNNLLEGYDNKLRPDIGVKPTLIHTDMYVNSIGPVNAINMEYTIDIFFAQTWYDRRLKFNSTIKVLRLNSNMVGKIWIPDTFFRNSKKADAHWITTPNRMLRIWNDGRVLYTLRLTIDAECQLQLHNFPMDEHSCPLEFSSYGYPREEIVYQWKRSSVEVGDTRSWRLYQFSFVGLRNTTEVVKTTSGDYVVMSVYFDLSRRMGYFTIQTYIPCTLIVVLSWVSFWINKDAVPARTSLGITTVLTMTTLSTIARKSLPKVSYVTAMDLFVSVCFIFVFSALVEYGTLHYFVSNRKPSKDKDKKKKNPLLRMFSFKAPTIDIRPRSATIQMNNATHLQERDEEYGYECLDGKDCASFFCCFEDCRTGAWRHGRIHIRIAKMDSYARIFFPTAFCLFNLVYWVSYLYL
# Sequence (P47869 whole entry): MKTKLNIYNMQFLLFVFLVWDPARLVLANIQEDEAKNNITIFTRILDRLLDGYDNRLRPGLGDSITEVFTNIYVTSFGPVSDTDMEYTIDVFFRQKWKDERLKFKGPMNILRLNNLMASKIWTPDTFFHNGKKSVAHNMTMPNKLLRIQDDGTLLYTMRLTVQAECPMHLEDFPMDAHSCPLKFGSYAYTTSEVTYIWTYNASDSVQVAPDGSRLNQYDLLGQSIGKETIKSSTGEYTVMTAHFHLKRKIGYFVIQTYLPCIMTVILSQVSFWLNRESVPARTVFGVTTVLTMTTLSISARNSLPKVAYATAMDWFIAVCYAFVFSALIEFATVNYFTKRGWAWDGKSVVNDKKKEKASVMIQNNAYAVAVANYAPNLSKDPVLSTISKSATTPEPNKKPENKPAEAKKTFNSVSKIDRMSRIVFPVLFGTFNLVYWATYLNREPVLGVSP
# protocol.text: Binding affinity for human GABA-A receptor alpha-2-beta-2-gamma-2 expressed in L(tk-) cell membranes
Measured Ki by item
API: value field is a number in nM; no unit string.

{"smiles.code": "C#Cc1ccc2c(c1)C(=O)N(C)Cc1c(C(=O)OCC)ncn1-2", "Ki, nM": 21.4}
{"smiles.code": "CCOC(=O)c1ncn2c1CN(C)C(=O)c1cc(CC)ccc1-2", "Ki, nM": 27}
{"smiles.code": "CCOC(=O)c1ncn2c1CN(C)C(=O)c1cc(C#C[Si](C)(C)C)ccc1-2", "Ki, nM": 142}
{"smiles.code": "C#Cc1ccc2c(c1)C(=O)N(C)Cc1c(C(=O)OC(C)(C)C)ncn1-2", "Ki, nM": 26.3}

// lookup Ki for `CN1Cc2c(C(=O)OC(C)(C)C)ncn2-c2ccc(C#C[Si](C)(C)C)cc2C1=O` 143

Please give the result for `CCc1ccc2c(c1)C(=O)N(C)Cc1c(C(=O)OC(C)(C)C)ncn1-2` too. 56

Please give the result for `CN1Cc2c(C(=O)OC(C)(C)C)ncn2-c2ccc(Br)cc2C1=O` too. 10.7

Please give the result for `CC#Cc1ccc2c(c1)C(=O)N(C)Cc1c(C(=O)OCC)ncn1-2` too. 22.2

Values from ChEMBL document CHEMBL1129572
